Where do these numbers come from? They come from paper PMC8173106.

Substrate: Cc1cc2nc3c(=O)[nH]c(=O)nc-3n(C[C@H](O)[C@H](O)[C@H](O)COP(=O)(O)OP(=O)(O)OC[C@H]3O[C@@H](n4cnc5c(N)ncnc54)[C@H](O)[C@@H]3O)c2cc1C
EXPERIMENT_SUMMARY: purified protein
Assay type: biochemical, Homo sapiens
PROTOCOL_CONDITIONS: co-substrate NADPH
REPORTED_METRIC: kcat (s⁻¹)

>>> measured_result("human BLVRB (biliverdin reductase B) (Homo sapiens; T164A) (protein, full length, 206 residues; codon-optimised, pET21b (T164S in pJ401k); N-terminal 6xHis tag removed with thrombin) MAVKKIAIFGATGQTGLTTLAQAVQAGYEVTVLVRDSSRLPSEGPRPAHVVVGDVLQAADVDKTVAGQDAVIVLLGTRNDLSPTTVMSEGARNIVAAMKAHGVDKVVACTSAFLLWDPTKVPPRLQAVTDDHIRMHKVLRESGLKYVAVMPPHIGDQPLTGAYAVTLDGRGPSRVISKHDLGHFMLRCLTTDEYDGHSTYPSHQYQ")
0.063
>>> measured_result("human BLVRB (biliverdin reductase B) (Homo sapiens; T164S) (protein, full length, 206 residues; codon-optimised, pET21b (T164S in pJ401k); N-terminal 6xHis tag removed with thrombin) MAVKKIAIFGATGQTGLTTLAQAVQAGYEVTVLVRDSSRLPSEGPRPAHVVVGDVLQAADVDKTVAGQDAVIVLLGTRNDLSPTTVMSEGARNIVAAMKAHGVDKVVACTSAFLLWDPTKVPPRLQAVTDDHIRMHKVLRESGLKYVAVMPPHIGDQPLTGAYSVTLDGRGPSRVISKHDLGHFMLRCLTTDEYDGHSTYPSHQYQ")
0.039
>>> measured_result("human BLVRB (biliverdin reductase B) (Homo sapiens; T164I) (protein, full length, 206 residues; codon-optimised, pET21b (T164S in pJ401k); N-terminal 6xHis tag removed with thrombin) MAVKKIAIFGATGQTGLTTLAQAVQAGYEVTVLVRDSSRLPSEGPRPAHVVVGDVLQAADVDKTVAGQDAVIVLLGTRNDLSPTTVMSEGARNIVAAMKAHGVDKVVACTSAFLLWDPTKVPPRLQAVTDDHIRMHKVLRESGLKYVAVMPPHIGDQPLTGAYIVTLDGRGPSRVISKHDLGHFMLRCLTTDEYDGHSTYPSHQYQ")
0.049
